molecular target: vanilloid receptor 1 (VR1/TRPV1 receptor) (Homo sapiens); construct: expressed in transfected cells; host or cells: CHO K1 cells (ECACC), stably transfected; experiment: VR1/TRPV1 receptor affinity, capsaicin stimulus (human); assay type: cell-based, human being; settings: Tables 8-12, read-out: (f) Ki (human being) [nM] Cap
Sequence (Q8NER1 whole entry): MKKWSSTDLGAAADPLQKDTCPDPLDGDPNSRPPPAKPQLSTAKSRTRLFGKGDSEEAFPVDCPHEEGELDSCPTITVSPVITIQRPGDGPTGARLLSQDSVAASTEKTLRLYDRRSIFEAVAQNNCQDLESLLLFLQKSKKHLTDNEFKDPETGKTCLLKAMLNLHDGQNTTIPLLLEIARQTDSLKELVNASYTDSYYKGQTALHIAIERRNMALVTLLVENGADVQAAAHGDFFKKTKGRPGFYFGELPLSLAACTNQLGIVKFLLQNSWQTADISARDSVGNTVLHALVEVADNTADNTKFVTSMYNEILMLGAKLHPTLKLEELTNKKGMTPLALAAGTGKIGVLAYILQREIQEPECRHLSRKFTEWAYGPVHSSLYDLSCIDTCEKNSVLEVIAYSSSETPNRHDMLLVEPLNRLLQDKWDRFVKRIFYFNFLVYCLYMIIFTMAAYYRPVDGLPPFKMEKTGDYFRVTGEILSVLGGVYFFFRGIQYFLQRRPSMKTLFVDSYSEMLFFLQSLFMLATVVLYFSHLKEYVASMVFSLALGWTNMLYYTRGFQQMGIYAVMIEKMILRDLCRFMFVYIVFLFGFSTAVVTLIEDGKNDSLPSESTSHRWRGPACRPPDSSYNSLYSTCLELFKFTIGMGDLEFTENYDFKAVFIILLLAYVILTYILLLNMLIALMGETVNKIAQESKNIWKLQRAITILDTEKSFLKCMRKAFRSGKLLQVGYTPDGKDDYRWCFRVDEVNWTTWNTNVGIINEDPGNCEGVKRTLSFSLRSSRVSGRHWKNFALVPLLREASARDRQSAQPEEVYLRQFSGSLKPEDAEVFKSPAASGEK
Strictly below 10 nM in Ki: 1.0. Otherwise: 0.0.

Would you please look over these solved cases?
| COMPOUND | QUALITATIVE_LABEL |
| --- | --- |
| NS(=O)(=O)NCc1ccc(NC(=O)NCc2cc(C(F)(F)F)nn2-c2ccc(F)c(F)c2)cc1F | 0.0 |
| CC(C(=O)NCc1cc(C(F)(F)F)nn1-c1ccc(Cl)cc1)c1ccc(CNS(C)(=O)=O)c(F)c1 (stereo not shown) | 0.0 |
| CS(=O)(=O)NCc1c(F)cc(NC(=O)NCc2cc(C(F)(F)F)nn2-c2cccc(Cl)c2)cc1F | 1.0 |
| CC(C)c1cccc(-n2nc(C(F)(F)F)cc2CNC(=O)Nc2ccc(CNS(C)(=O)=O)cc2)c1 | 1.0 |
| CC(C)(C)c1cc(CNC(=O)Nc2ccc(CNS(C)(=O)=O)c(F)c2)n(-c2cccc(Cl)c2)n1 | 1.0 |

A record lists CC(C)(C)c1cc(CNC(=O)Nc2ccc(CCS(C)(=O)=O)c(F)c2)n(-c2cc(F)cc(F)c2)n1 . Is its Ki below 10 nM?
0.0

// repeat for CC(C(=O)NCc1cc(C(F)(F)F)nn1-c1cccc(Cl)c1)c1ccc(N2CCCS2(=O)=O)c(F)c1 (stereo not shown) and report
0.0
